Values from patent US9765092B2

Please go through the items and note down their pIC50.
Molecular target: human TPH1 (Homo sapiens (Human))
Sequence (P17752 whole entry): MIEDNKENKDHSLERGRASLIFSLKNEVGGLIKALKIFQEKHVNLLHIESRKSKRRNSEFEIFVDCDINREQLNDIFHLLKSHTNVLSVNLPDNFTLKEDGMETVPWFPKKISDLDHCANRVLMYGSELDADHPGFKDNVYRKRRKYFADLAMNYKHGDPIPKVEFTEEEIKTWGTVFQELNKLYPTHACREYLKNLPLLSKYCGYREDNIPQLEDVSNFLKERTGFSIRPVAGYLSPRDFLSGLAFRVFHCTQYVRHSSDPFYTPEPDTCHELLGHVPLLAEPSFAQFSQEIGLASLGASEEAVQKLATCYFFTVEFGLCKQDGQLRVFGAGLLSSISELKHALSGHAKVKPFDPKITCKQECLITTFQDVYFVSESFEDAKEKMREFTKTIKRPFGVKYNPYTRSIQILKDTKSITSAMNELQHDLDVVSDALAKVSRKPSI
Assay: Biochemical in vitro assay using fluorescence readout (TPH1 inhibition)
Settings: human TPH1, fluorescence readout
# log scale: pIC50 equals minus log10 of the concentration in mol/L

Exercise: Which pIC50 value belongs to CCc1nc(C)ccc1OCC(=O)N1CCc2nc3sc(C)nn3c2C1c1ncc(C2CC2)cc1F (centres unmarked) ?
Key: 8.22

Exercise: Which pIC50 value belongs to CCc1nc(C)ccc1OCC(=O)N1CCc2nc3sc(C)nn3c2C1c1cnc(C2CC2)nc1 (centres unmarked) ?
Key: 6.73

Exercise: Which pIC50 value belongs to Cc1nn2c3c(nc2s1)CCN(C(=O)COc1ccc(NS(C)(=O)=O)nc1Cl)C3c1ccc(C(C)(C)O)cc1F (centres unmarked) ?
Key: 7.01

Exercise: Which pIC50 value belongs to CCOC(=O)c1csc(C2c3c(nc4sc(C)nn34)CCN2C(=O)COc2ccc(C(F)(F)F)cc2Cl)n1 (centres unmarked) ?
Key: 6.61

Exercise: Which pIC50 value belongs to CNC(=O)c1cc(F)c(C2c3c(nc4sc(C)nn34)CCN2C(=O)COc2ccc(C(F)(F)F)nc2Cl)s1 (centres unmarked) ?
Key: 7.46

Exercise: Which pIC50 value belongs to Cc1nn2c3c(nc2s1)CCN(C(=O)COc1cc(F)c(N2CCOCC2)nc1Cl)C3c1ncc(C2CC2)cc1F (centres unmarked) ?
Key: 8.40

Exercise: Which pIC50 value belongs to Cc1nn2c3c(nc2s1)CCN(C(=O)C1(Oc2ccc(NS(C)(=O)=O)nc2Cl)CC1)C3c1ccc(Cl)cc1F (centres unmarked) ?
Key: 7.43

Exercise: Which pIC50 value belongs to Cc1nn2c3c(nc2s1)CCN(C(=O)COc1ccc(N2CCOCC2)nc1Cl)C3c1ncc(Cl)cc1F (centres unmarked) ?
Key: 8.70

Exercise: Which pIC50 value belongs to Cc1nn2c3c(nc2s1)CCN(C(=O)COc1ccnc2c(F)ccc(F)c12)C3c1ccc(Cl)cc1F (centres unmarked) ?
Key: 7.51

Exercise: Which pIC50 value belongs to Cc1nn2c3c(nc2s1)CCN(C(=O)COc1ccc(C(=O)N(C)C)nc1Cl)C3c1cccc(F)c1F (centres unmarked) ?
Key: 7.19

Exercise: Which pIC50 value belongs to CCc1nn2c3c(nc2s1)CCN(C(=O)COc1ccc(N2CCN(C)CC2)nc1Cl)C3c1ccc(Cl)cc1F (centres unmarked) ?
Key: 8.00
